Catalogue of self-splicing fitness (ln) values
assay: self-splicing fitness, log relative to wild type (ln ratio); higher = more splicing; Tetrahymena group I intron in knt gene, E. coli kanamycin selection, DiMSum; sequences stand for … in CUCUCU…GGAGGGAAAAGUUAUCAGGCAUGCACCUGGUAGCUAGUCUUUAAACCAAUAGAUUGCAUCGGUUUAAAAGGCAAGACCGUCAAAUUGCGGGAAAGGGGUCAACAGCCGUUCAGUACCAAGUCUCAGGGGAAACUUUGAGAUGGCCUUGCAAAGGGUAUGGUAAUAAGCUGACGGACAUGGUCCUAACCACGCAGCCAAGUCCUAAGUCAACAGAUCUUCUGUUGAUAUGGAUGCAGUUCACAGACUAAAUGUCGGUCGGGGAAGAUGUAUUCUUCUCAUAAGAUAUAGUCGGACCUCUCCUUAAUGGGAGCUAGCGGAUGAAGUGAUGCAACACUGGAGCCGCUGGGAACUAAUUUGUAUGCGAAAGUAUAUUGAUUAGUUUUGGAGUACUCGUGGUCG; conditions: 30 °C;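 note: selection with 25 µg/mL kanamycin versus none on LB agar overnight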
Write no unit; give the number alone.

Known self-splicing fitness (ln) results, listed for orientation:
itemsequence=CAUGAGCAAUAUUACGAGAC metricname="self-splicing fitness (ln)" result=-3.32
itemsequence=CCGUAGCAAUAUUACGCAGU metricname="self-splicing fitness (ln)" result=-2.54
itemsequence=GGUCAGCAAUAUUACGGUGC metricname="self-splicing fitness (ln)" result=-0.28

Turning now to a further record.
The recorded self-splicing fitness (ln) for GCAAAGCAAUAUUACGGAAU is -2.6

====

experiment: self-splicing fitness, log relative to wild type (ln ratio); higher = more splicing; Tetrahymena group I intron in knt gene, E. coli kanamycin selection, DiMSum; sequences stand for … in CUCUCU…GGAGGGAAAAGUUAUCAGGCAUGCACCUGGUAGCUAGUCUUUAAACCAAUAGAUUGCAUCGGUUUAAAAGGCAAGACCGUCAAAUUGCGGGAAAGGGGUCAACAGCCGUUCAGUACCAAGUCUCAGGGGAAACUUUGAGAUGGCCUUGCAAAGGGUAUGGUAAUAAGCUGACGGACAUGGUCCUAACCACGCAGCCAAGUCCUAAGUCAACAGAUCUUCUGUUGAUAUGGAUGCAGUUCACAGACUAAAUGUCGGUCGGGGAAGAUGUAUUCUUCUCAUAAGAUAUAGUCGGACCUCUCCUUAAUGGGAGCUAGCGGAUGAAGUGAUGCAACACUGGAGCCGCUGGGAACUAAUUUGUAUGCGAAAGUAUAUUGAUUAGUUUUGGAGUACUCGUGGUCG; conditions: 30 °C
Catalogue of self-splicing fitness (ln) values

The recorded self-splicing fitness (ln) for CCCUAGCAAUAUUACGAACU is -2.89

====

assay: self-splicing fitness, log relative to wild type (ln ratio); higher = more splicing; Tetrahymena group I intron in knt gene, E. coli kanamycin selection, DiMSum; sequences stand for … in CUCUCU…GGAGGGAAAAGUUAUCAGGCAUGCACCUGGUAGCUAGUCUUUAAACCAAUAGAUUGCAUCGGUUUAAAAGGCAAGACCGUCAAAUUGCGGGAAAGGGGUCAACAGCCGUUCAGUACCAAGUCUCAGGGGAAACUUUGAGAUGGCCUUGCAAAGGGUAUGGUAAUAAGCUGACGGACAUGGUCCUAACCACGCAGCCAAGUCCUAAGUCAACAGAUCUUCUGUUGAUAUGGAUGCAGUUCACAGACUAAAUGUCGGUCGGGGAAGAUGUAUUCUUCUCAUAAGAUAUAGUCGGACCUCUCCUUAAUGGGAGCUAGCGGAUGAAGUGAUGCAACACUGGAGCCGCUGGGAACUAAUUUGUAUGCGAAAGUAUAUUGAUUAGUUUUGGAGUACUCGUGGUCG; conditions: 30 °C
Catalogue of self-splicing fitness (ln) values
Write no unit; give the number alone.

Known self-splicing fitness (ln) results, listed for orientation:
itemsequence=UACCAGCAAUAUUACGGGAU metricname="self-splicing fitness (ln)" result=-3.25
itemsequence=CUAAAGCAAUAUUACGGGGU metricname="self-splicing fitness (ln)" result=-3.19
itemsequence=AUUAAGCAAUAUUACGGAAU metricname="self-splicing fitness (ln)" result=-1.3
itemsequence=CCAGAGCAAUAUUACGAAGG metricname="self-splicing fitness (ln)" result=-3.47
itemsequence=AAGAAGCAAUAUUACGAGCG metricname="self-splicing fitness (ln)" result=-0.646

The recorded self-splicing fitness (ln) for UAUCAGCAAUAUUACGGGAA is -1.65

The recorded self-splicing fitness (ln) for CUCGAGCAAUAUUACGAUUG is -2.53

The recorded self-splicing fitness (ln) for AAUGAGCAAUAUUACGCCUU is -2.11

The recorded self-splicing fitness (ln) for GAGGAGCAAUAUUACGCUAC is -3.94

The recorded self-splicing fitness (ln) for GUCCAGCAAUAUUACGAAUA is 0.0949

The recorded self-splicing fitness (ln) for CAUAAGCAAUAUUACGGCCG is 0.39

The recorded self-splicing fitness (ln) for GAACAGCAAUAUUACGCGAC is -2.3

====

assay: self-splicing fitness, log relative to wild type (ln ratio); higher = more splicing; Tetrahymena group I intron in knt gene, E. coli kanamycin selection, DiMSum; sequences stand for … in CUCUCU…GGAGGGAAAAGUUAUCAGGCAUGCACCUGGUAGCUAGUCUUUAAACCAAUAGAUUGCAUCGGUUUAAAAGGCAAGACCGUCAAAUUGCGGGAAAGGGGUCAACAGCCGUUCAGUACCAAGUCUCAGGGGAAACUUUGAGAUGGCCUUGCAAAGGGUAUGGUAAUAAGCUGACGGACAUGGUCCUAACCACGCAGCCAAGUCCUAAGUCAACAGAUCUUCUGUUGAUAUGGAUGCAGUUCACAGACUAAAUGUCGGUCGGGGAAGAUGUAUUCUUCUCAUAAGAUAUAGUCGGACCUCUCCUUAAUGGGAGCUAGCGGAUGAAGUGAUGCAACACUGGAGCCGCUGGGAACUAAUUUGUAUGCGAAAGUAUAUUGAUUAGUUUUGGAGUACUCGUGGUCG; conditions: 37 °C
Category key, based on recorded self-splicing fitness (ln): low (below -2), intermediate (-2 to below -0.8), high (-0.8 or more)

itemsequence=GCUAAGCAAUAUUACGCCUU cat=high
itemsequence=GACGAGCAAUAUUACGCAGC cat=intermediate
itemsequence=UAUUAGCAAUAUUACGGCGC cat=high

Prompt line: Classify this sequence: UCGCAGCAAUAUUACGGCGG
Response line: low

Prompt line: Classify this sequence: ACCUAGCAAUAUUACGCAUA
Response line: intermediate

Prompt line: Classify this sequence: GGUAAGCAAUAUUACGGUAG
Response line: low

Prompt line: Classify this sequence: GCCUAGCAAUAUUACGCAGG
Response line: low

Prompt line: Classify this sequence: UCCGAGCAAUAUUACGCGUG
Response line: intermediate

Prompt line: Classify this sequence: UUCUAGCAAUAUUACGGAAU
Response line: intermediate

Prompt line: Classify this sequence: UUUCAGCAAUAUUACGAUUG
Response line: high

Prompt line: Classify this sequence: GCCCAGCAAUAUUACGCAGG
Response line: low

Prompt line: Classify this sequence: AUAAAGCAAUAUUACGACCU
Response line: high

Prompt line: Classify this sequence: GGUCAGCAAUAUUACGAGAU
Response line: low

====

assay: self-splicing fitness, log relative to wild type (ln ratio); higher = more splicing; Tetrahymena group I intron in knt gene, E. coli kanamycin selection, DiMSum; sequences stand for … in CUCUCU…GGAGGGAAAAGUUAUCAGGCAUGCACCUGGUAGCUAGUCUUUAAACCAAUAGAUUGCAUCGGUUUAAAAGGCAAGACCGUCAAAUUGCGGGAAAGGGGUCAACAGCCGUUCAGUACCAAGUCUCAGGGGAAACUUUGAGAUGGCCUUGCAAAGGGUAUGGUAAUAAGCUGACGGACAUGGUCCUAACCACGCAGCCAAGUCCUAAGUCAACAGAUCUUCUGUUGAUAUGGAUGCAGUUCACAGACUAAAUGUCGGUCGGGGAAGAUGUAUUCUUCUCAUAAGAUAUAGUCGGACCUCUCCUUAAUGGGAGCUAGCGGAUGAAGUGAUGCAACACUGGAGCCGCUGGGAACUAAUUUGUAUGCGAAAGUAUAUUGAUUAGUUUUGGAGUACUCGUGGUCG; settings: 37 °C
metricName: self-splicing fitness (ln)
Write no unit; give the number alone.

Known self-splicing fitness (ln) results, listed for orientation:
itemsequence=CUGUAGCAAUAUUACGCGAU metricname="self-splicing fitness (ln)" result=-2.87
itemsequence=GAGUAGCAAUAUUACGAACC metricname="self-splicing fitness (ln)" result=-0.433
itemsequence=CCCAAGCAAUAUUACGGACC metricname="self-splicing fitness (ln)" result=-2.29

The recorded self-splicing fitness (ln) for GCAUAGCAAUAUUACGCGCG is -0.259

The recorded self-splicing fitness (ln) for CUGUAGCAAUAUUACGUUGU is -4.02

The recorded self-splicing fitness (ln) for CGCUAGCAAUAUUACGAGAC is -2.45

The recorded self-splicing fitness (ln) for AAUGAGCAAUAUUACGCCUA is -1.62

The recorded self-splicing fitness (ln) for UUACAGCAAUAUUACGAGCA is -0.698
